- ASSAY_COMMENT: In vivo biodistribution and clearance in PC-3 tumor-bearing mice
- CONDITION_LABEL: male, NMRI-Foxn1 nu/nu, mouse, pancreas, iv, total radioactivity; 24 h p.i., i.v.; read-out: % uptake pancreas
ATTRIBUTE_MEASURED: tissue uptake at 24 h (%ID/g)
The figure you give is taken to be in %ID/g; do not add the unit.

Endpoint output: tissue uptake at 24 h of CC(C)C[C@H](NC(=O)C[C@H](O)[C@H](CC(C)C)NC(=O)[C@H](Cc1c[nH]cn1)NC(=O)CNC(=O)[C@@H](NC(=O)[C@H](C)NC(=O)[C@H](Cc1c[nH]c2ccccc12)NC(=O)[C@H](CCC(N)=O)NC(=O)[C@@H](Cc1ccccc1)NC(=O)CN1CCC(NC(=O)CN2CCN(CC(=O)O)CCN(CC(=O)O)CCN(CC(=O)O)CC2)CC1)C(C)C)C(N)=O [[^177Lu]Lu-RM2, metal not drawn] . Value? 0.25

I'd like to know its tissue uptake at 24 h. The molecule in question is CC(C)CC(CC(C)C)NC(=O)[C@H](Cc1cnc[nH]1)NC(=O)CNC(=O)[C@@H](NC(=O)[C@H](C)NC(=O)[C@H](Cc1c[nH]c2ccccc12)NC(=O)[C@H](CCC(N)=O)NC(=O)[C@@H](Cc1ccccc1)NC(=O)COCC(=O)Nc1ccc(CNC(=O)CN2CCN(CC(=O)O)CCN(CC(=O)O)CCN(CC(=O)O)CC2)cc1)C(C)C [[^177Lu]Lu-NeoB, metal not drawn] 4.14

###

- ASSAY_COMMENT: Stability in human serum at 37 °C (radio-HPLC)
- Assay type: in vitro ADME
- CONDITION_LABEL: 24 h, read-out: intact radiolabeled ligand (RCP)
Examples of compounds with documented remaining at 24 h follow.
Give the value, in units of %, as a plain number.

COMPOUND	remaining at 24 h [%]
CC(C)CC(CC(C)C)NC(=O)[C@H](Cc1cnc[nH]1)NC(=O)CNC(=O)[C@@H](NC(=O)[C@H](C)NC(=O)[C@H](Cc1c[nH]c2ccccc12)NC(=O)[C@H](CCC(N)=O)NC(=O)[C@@H](Cc1ccccc1)NC(=O)COCC(=O)Nc1ccc(CNC(=O)CN2CCN(CC(=O)O)CCN(CC(=O)O)CCN(CC(=O)O)CC2)cc1)C(C)C [[^177Lu]Lu-NeoB, metal not drawn]	89.2

Form field: reported remaining at 24 h of CC(C)C[C@H](NC(=O)C[C@H](O)[C@H](CC(C)C)NC(=O)[C@H](Cc1c[nH]cn1)NC(=O)CNC(=O)[C@@H](NC(=O)[C@H](C)NC(=O)[C@H](Cc1c[nH]c2ccccc12)NC(=O)[C@H](CCC(N)=O)NC(=O)[C@@H](Cc1ccccc1)NC(=O)CN1CCC(NC(=O)CN2CCN(CC(=O)O)CCN(CC(=O)O)CCN(CC(=O)O)CC2)CC1)C(C)C)C(N)=O [[^177Lu]Lu-RM2, metal not drawn] 94.9

###

- ASSAY_COMMENT: In vivo biodistribution and clearance in PC-3 tumor-bearing mice
- CONDITION_LABEL: male, NMRI-Foxn1 nu/nu, mouse, lung, iv, total radioactivity; 1 h p.i., i.v.; read-out: % uptake lungs
tissue uptake at 1 h values for the compounds below.
# number only, unit %ID/g dropped from output

COMPOUND	READING
CC(C)CC(CC(C)C)NC(=O)[C@H](Cc1cnc[nH]1)NC(=O)CNC(=O)[C@@H](NC(=O)[C@H](C)NC(=O)[C@H](Cc1c[nH]c2ccccc12)NC(=O)[C@H](CCC(N)=O)NC(=O)[C@@H](Cc1ccccc1)NC(=O)COCC(=O)Nc1ccc(CNC(=O)CN2CCN(CC(=O)O)CCN(CC(=O)O)CCN(CC(=O)O)CC2)cc1)C(C)C [[^177Lu]Lu-NeoB, metal not drawn]	0.69

# evaluate next
Which tissue uptake at 1 h reading was recorded for the compound CC(C)C[C@H](NC(=O)C[C@H](O)[C@H](CC(C)C)NC(=O)[C@H](Cc1c[nH]cn1)NC(=O)CNC(=O)[C@@H](NC(=O)[C@H](C)NC(=O)[C@H](Cc1c[nH]c2ccccc12)NC(=O)[C@H](CCC(N)=O)NC(=O)[C@@H](Cc1ccccc1)NC(=O)CN1CCC(NC(=O)CN2CCN(CC(=O)O)CCN(CC(=O)O)CCN(CC(=O)O)CC2)CC1)C(C)C)C(N)=O [[^177Lu]Lu-RM2, metal not drawn] ? 0.3

###

- ASSAY_COMMENT: In vivo biodistribution and clearance in PC-3 tumor-bearing mice
- CONDITION_LABEL: male, NMRI-Foxn1 nu/nu, mouse, PC-3 tumor, iv, total radioactivity; 48 h p.i., i.v.; read-out: % uptake PC-3 tumor
ATTRIBUTE_MEASURED: tissue uptake at 48 h (%ID/g)
Please respond with the number in %ID/g and leave the unit unwritten.

MOLECULE	tissue uptake at 48 h / %ID/g
CC(C)CC(CC(C)C)NC(=O)[C@H](Cc1cnc[nH]1)NC(=O)CNC(=O)[C@@H](NC(=O)[C@H](C)NC(=O)[C@H](Cc1c[nH]c2ccccc12)NC(=O)[C@H](CCC(N)=O)NC(=O)[C@@H](Cc1ccccc1)NC(=O)COCC(=O)Nc1ccc(CNC(=O)CN2CCN(CC(=O)O)CCN(CC(=O)O)CCN(CC(=O)O)CC2)cc1)C(C)C [[^177Lu]Lu-NeoB, metal not drawn]	4.77

Bench note: what tissue uptake at 48 h did CC(C)C[C@H](NC(=O)C[C@H](O)[C@H](CC(C)C)NC(=O)[C@H](Cc1c[nH]cn1)NC(=O)CNC(=O)[C@@H](NC(=O)[C@H](C)NC(=O)[C@H](Cc1c[nH]c2ccccc12)NC(=O)[C@H](CCC(N)=O)NC(=O)[C@@H](Cc1ccccc1)NC(=O)CN1CCC(NC(=O)CN2CCN(CC(=O)O)CCN(CC(=O)O)CCN(CC(=O)O)CC2)CC1)C(C)C)C(N)=O [[^177Lu]Lu-RM2, metal not drawn] show? 5.47

###

The compounds listed here are annotated with their tissue uptake at 24 h.
- ASSAY_COMMENT: In vivo biodistribution and clearance in PC-3 tumor-bearing mice
- CONDITION_LABEL: male, NMRI-Foxn1 nu/nu, mouse, lung, iv, total radioactivity; 24 h p.i., i.v.; read-out: % uptake lungs
# output: bare number, implied unit %ID/g

COMPOUND	ATTRIBUTE_MEASURED	READING
CC(C)C[C@H](NC(=O)C[C@H](O)[C@H](CC(C)C)NC(=O)[C@H](Cc1c[nH]cn1)NC(=O)CNC(=O)[C@@H](NC(=O)[C@H](C)NC(=O)[C@H](Cc1c[nH]c2ccccc12)NC(=O)[C@H](CCC(N)=O)NC(=O)[C@@H](Cc1ccccc1)NC(=O)CN1CCC(NC(=O)CN2CCN(CC(=O)O)CCN(CC(=O)O)CCN(CC(=O)O)CC2)CC1)C(C)C)C(N)=O [[^177Lu]Lu-RM2, metal not drawn]	tissue uptake at 24 h	0.02

Name the reported tissue uptake at 24 h value associated with the compound CC(C)CC(CC(C)C)NC(=O)[C@H](Cc1cnc[nH]1)NC(=O)CNC(=O)[C@@H](NC(=O)[C@H](C)NC(=O)[C@H](Cc1c[nH]c2ccccc12)NC(=O)[C@H](CCC(N)=O)NC(=O)[C@@H](Cc1ccccc1)NC(=O)COCC(=O)Nc1ccc(CNC(=O)CN2CCN(CC(=O)O)CCN(CC(=O)O)CCN(CC(=O)O)CC2)cc1)C(C)C [[^177Lu]Lu-NeoB, metal not drawn] 0.02

###

- ASSAY_COMMENT: In vivo biodistribution and clearance in PC-3 tumor-bearing mice
- CONDITION_LABEL: male, NMRI-Foxn1 nu/nu, mouse, liver, iv, total radioactivity; 24 h p.i., i.v.; read-out: % uptake liver
ATTRIBUTE_MEASURED: tissue uptake at 24 h (%ID/g)
API: value field is a number in %ID/g; no unit string.

COMPOUND	tissue uptake at 24 h, %ID/g
CC(C)C[C@H](NC(=O)C[C@H](O)[C@H](CC(C)C)NC(=O)[C@H](Cc1c[nH]cn1)NC(=O)CNC(=O)[C@@H](NC(=O)[C@H](C)NC(=O)[C@H](Cc1c[nH]c2ccccc12)NC(=O)[C@H](CCC(N)=O)NC(=O)[C@@H](Cc1ccccc1)NC(=O)CN1CCC(NC(=O)CN2CCN(CC(=O)O)CCN(CC(=O)O)CCN(CC(=O)O)CC2)CC1)C(C)C)C(N)=O [[^177Lu]Lu-RM2, metal not drawn]	0.04

Now let's try a different one.
Give its tissue uptake at 24 h value. Item: CC(C)CC(CC(C)C)NC(=O)[C@H](Cc1cnc[nH]1)NC(=O)CNC(=O)[C@@H](NC(=O)[C@H](C)NC(=O)[C@H](Cc1c[nH]c2ccccc12)NC(=O)[C@H](CCC(N)=O)NC(=O)[C@@H](Cc1ccccc1)NC(=O)COCC(=O)Nc1ccc(CNC(=O)CN2CCN(CC(=O)O)CCN(CC(=O)O)CCN(CC(=O)O)CC2)cc1)C(C)C [[^177Lu]Lu-NeoB, metal not drawn] 0.12

The reported numbers originate from paper PMC10611828.
